// values below are reported melting point

Please review the entries below; each comes with its answer.
| compound | melting point |
| --- | --- |
| O=C(Nc1ccc(C(=O)N2CCCc3cc(F)ccc32)cc1)c1cc(Cl)cc(Cl)c1 | 206 °C |
| O=C1C2C3C=CC(C3)C2C(=O)N1OS(=O)(=O)C(F)(F)F (stereo unspecified) | 89 to 90 °C |
| CC(C)(C)OC(=O)N1CCNC(=O)C1Cc1ccccc1 (stereo unspecified) | 152 to 154 °C |

Input line: Looking for the measured melting point of "CCN(CC)CCNC(=O)c1nc(Cl)c(N)nc1OC" , can you help?
Output line: 158 °C

Input line: Try the compound "N#Cc1ccc(CO)cc1F"
Output line: 70 to 72 °C

Input line: Try the compound "C[Si](C)(c1ccccc1)c1ccccc1CO"
Output line: 53 to 54 °C

Input line: Try the compound "CC(C)(C)Sc1c(CC(C)(C)C(=O)O)n(Cc2ccc(Cl)cc2)c2ccc(OCc3ccccn3)cc12"
Output line: 189 to 190 °C

Input line: Try the compound "O=C(Nc1nc(-c2ccccc2)cs1)C(=O)OC1CCCCC1"
Output line: 160 to 161 °C

Input line: Try the compound "O=C(Nc1nc(-c2ccco2)c(C(=O)c2ccn(Cc3ccccc3)c(=O)c2)s1)c1ccncc1"
Output line: 288 to 291 °C

Input line: Try the compound "O=[N+]([O-])c1ccc(Cl)cc1Nc1cccc(Cl)c1"
Output line: 112 °C

Input line: Try the compound "COC(=O)CCc1cc2nc(Cl)ccc2n1S(=O)(=O)c1cccc2cccnc12"
Output line: 120 °C

Input line: Try the compound Oc1ccccc1OCC1CCN(CC(O)COc2cccc3[nH]ccc23)CC1 (stereo unspecified)
Output line: 119 to 121 °C

Input line: Try the compound "COC(=O)Nc1nc2ccc(Sc3ccccc3)cn2c1C(=O)C(F)(F)F"
Output line: 171 to 173 °C

###

// values below are reported melting point

Please review the entries below; each comes with its answer.
| compound | quantity-kind | test-value |
| --- | --- | --- |
| O=c1oc2ccccc2c(=O)n1OS(=O)(=O)C(F)(F)F | melting point | 74 to 76 °C |
| COc1ccc2c(c1)C(=O)C(C)(C)CC2c1ccc(Cl)cc1 (centres undefined) | melting point | 135 to 138 °C |
| CC(C)(O)COc1c(-c2ccc(S(N)(=O)=O)cc2)cnn(-c2ccc(F)c(F)c2)c1=O | melting point | 65 to 69 °C |
| COc1ncc(C)cc1Nc1cc(C#N)c2c(c1)[C@@H]1CNCC[C@@H]1N2C | melting point | 76 to 80 °C |
| Cc1ccc(-c2cc(CN3CCN(C(=O)OC(C)(C)C)CC3)c(=O)n(CC(C)C)n2)cc1F | melting point | 68.7 to 69 °C |

Input line: Looking for the measured melting point of "CSc1nc(CO)c(CO)n1-c1ccccc1" , can you help?
Output line: 137 to 138 °C

Input line: Try the compound "CC(=O)Nc1ccnn1-c1c(F)cc(C(F)(F)F)cc1Cl"
Output line: 144 to 146 °C

Input line: Try the compound Cc1ccc(NC(=O)N(C)Cc2cccc3c2C(=O)N(C2CCC(=O)NC2=O)C3=O)cc1C (centres undefined)
Output line: 202 to 204 °C

Input line: Try the compound "Cc1nnc(N2CCC(N3c4ccccc4N(C)S3(=O)=O)CC2)n1-c1ccc(Cl)cc1"
Output line: 210 to 212 °C
